Below, each of the binders is paired with its reported EC50 nM H1650 (in vitro tumor cell cytotoxicity) value.
Test Target: T1, Human full length B7-H3 (human, UniProt Q5ZPR3 29-534)
T1 sequence: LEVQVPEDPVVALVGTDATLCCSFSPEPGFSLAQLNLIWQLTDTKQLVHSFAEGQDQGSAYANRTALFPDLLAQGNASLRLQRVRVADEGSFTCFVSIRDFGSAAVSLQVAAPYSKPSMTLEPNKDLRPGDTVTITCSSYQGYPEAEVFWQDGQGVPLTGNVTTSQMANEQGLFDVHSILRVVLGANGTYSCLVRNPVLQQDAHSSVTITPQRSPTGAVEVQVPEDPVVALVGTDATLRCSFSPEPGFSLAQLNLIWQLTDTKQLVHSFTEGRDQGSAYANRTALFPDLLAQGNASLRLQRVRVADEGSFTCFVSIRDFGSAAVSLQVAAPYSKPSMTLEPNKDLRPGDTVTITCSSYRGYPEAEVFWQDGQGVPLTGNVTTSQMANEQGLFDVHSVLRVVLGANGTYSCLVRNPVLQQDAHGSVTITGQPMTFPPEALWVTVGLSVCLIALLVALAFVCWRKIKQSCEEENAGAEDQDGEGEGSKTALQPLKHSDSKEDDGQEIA
Assay Comment: cell-based or functional assay
Observable: EC50 nM H1650 (in vitro tumor cell cytotoxicity) (nM)

Binder | Result Unit | Numeric Result
huAb13v1-XW (antibody, human IgG1, kappa, L234A L235A, V domains shown, synthon XW on interchain Cys) VH: EVQLQESGPGLVKPSETLSLTCAVTGYSITSGYSWHWIRQFPGNGLEWMGYIHSSGSTNYNPSLKSRISISRDTSKNQFFLKLSSVTAADTAVYYCAGYDDYFEYWGQGTTVTVSS VL: DIQMTQSPSSLSASVGDRVTITCKASQNVGFNVAWYQQKPGKSPKALIYSASYRYSGVPSRFSGSGSGTDFTLTISSLQPEDFAEYFCQQYNWYPFTFGQGTKLEIKR | nM | 0.86
huAb13v1-TV (antibody, human IgG1, kappa, L234A L235A, V domains shown, synthon TV on interchain Cys) VH: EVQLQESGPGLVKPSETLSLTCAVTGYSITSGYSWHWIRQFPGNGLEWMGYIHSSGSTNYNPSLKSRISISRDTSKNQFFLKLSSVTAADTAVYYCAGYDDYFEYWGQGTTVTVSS VL: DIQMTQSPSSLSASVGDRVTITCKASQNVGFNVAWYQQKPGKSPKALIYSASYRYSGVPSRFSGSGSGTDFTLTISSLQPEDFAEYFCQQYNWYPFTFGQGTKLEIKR | nM | 0.43
huAb3v2.5-AAD (antibody, human IgG1, kappa, L234A L235A, V domains shown, synthon AAD on interchain Cys) VH: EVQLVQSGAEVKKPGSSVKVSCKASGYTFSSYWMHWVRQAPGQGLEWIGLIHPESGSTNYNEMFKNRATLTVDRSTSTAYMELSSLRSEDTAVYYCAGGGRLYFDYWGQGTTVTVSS VL: DIVMTQSPLSLPVTPGEPASISCRSSQSLVHSNRDTYLRWYLQKPGQSPQLLIYKVSNRFSGVPDRFSGSGSGTDFTLKISRVEAEDVGVYYCSQSTHVPYTFGGGTKVEIKR | nM | 0.49
huAb3v2.5-XW (antibody, human IgG1, kappa, L234A L235A, V domains shown, synthon XW on interchain Cys) VH: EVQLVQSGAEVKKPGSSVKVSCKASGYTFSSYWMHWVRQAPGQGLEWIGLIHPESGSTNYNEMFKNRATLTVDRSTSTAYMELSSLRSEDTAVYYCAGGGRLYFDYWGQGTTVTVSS VL: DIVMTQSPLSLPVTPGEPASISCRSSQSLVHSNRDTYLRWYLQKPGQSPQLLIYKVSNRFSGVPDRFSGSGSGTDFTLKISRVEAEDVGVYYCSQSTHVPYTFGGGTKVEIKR | nM | 2.18
huAb3v2.5-YY (antibody, human IgG1, kappa, L234A L235A, V domains shown, synthon YY on interchain Cys) VH: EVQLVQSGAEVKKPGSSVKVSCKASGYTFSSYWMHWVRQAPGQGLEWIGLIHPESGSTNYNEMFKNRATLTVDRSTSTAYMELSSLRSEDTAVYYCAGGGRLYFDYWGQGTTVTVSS VL: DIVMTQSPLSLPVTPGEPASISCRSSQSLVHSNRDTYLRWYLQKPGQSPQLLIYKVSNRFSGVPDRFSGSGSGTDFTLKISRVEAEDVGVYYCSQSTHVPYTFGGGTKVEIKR | nM | 0.71
huAb3v2.5-ZZ (antibody, human IgG1, kappa, L234A L235A, V domains shown, synthon ZZ on interchain Cys) VH: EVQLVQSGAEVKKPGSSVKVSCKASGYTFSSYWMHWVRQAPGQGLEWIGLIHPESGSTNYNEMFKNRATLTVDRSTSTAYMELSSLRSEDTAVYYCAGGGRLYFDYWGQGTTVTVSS VL: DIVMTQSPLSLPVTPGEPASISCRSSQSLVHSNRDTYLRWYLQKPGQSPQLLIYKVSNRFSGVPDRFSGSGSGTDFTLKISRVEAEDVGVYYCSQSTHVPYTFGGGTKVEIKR | nM | 1.1
huAb3v2.6-YG (antibody, human IgG1, kappa, L234A L235A, V domains shown, synthon YG on interchain Cys) VH: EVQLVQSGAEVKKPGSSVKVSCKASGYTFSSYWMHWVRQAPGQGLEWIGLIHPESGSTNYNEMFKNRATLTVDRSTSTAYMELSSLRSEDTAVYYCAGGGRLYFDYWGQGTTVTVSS VL: DIVMTQSPLSLPVTPGEPASISCRSSQSLVHSNQDTYLRWYLQKPGQSPQLLIYKVSNRFSGVPDRFSGSGSGTDFTLKISRVEAEDVGVYYCSQSTHVPYTFGGGTKVEIKR | nM | 0.68
huAb3v2.6-AAD (antibody, human IgG1, kappa, L234A L235A, V domains shown, synthon AAD on interchain Cys) VH: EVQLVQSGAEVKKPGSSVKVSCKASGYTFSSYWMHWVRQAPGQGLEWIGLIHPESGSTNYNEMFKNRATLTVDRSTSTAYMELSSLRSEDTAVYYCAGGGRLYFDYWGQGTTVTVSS VL: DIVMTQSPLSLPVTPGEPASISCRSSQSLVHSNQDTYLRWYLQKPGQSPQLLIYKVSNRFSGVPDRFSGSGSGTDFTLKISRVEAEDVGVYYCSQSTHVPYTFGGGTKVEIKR | nM | 0.85
huAb13v1-SR (antibody, human IgG1, kappa, L234A L235A, V domains shown, synthon SR on interchain Cys) VH: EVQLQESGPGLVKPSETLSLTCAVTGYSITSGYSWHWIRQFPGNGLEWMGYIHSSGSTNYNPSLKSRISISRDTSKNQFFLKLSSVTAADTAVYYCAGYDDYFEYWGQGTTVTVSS VL: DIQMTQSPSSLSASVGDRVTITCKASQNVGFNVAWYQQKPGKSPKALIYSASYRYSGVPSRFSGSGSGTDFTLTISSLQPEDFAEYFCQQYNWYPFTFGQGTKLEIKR | nM | 0.59
huAb3v2.6-CZ (antibody, human IgG1, kappa, L234A L235A, V domains shown, synthon CZ on interchain Cys) VH: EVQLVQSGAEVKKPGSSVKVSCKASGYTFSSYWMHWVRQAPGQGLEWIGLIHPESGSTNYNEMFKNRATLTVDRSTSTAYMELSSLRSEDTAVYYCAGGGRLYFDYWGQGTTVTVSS VL: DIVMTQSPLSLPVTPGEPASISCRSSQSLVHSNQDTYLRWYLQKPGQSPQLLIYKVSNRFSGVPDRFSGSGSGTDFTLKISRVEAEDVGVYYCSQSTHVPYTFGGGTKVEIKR | nM | 0.4

Source of measurements: patent US20200002421A1
